# Species on record: Rattus norvegicus
# Test Method Notes: Open TG-GATES - Regimen: Daily Repeat
# Format: toxicity, organism-based, Sprague-Dawley
# Set-up: regimen Daily Repeat, gender Male, age 6 weeks
# Experimental Conditions: in vivo, po, 1000 mg/kg, […], tissue Plasma, route gavage, dose level High, time 14 day
Measurement Type: A/G

Look over these answered cases.
{"Molecule": "CCOC(=O)CCC(=O)O[C@H]1[C@H](O[C@@H]2[C@@H](C)[C@H](O[C@H]3C[C@@](C)(OC)[C@@H](O)[C@H](C)O3)[C@@H](C)C(=O)O[C@H](CC)[C@@](C)(O)[C@H](O)[C@@H](C)C(=O)[C@H](C)C[C@@]2(C)O)O[C@H](C)C[C@@H]1N(C)C [ERYTHROMYCIN ETHYLSUCCINATE]", "Observed Measurement": 1.1}
{"Molecule": "COC1=CC(=O)C[C@@H](C)[C@]12Oc1c(Cl)c(OC)cc(OC)c1C2=O", "Observed Measurement": 1.4}

Give the reported A/G for this molecule. CCOc1ccc(NC(=O)CC(C)O)cc1 (centres undefined)
0.8

Give the reported A/G for this molecule. `NC(N)=Nc1nc(CSCCC(N)=NS(N)(=O)=O)cs1`
1.5

---

Known RBC of a selection of compounds
# Species: Rattus norvegicus
# Test Method Notes: Open TG-GATES - Regimen: Single
# Assay type: toxicity, organism-based, Sprague-Dawley
# Parameters: regimen Single, gender Male, age 6 weeks
# Experimental Conditions: in vivo, po, 300 mg/kg, 9 h, tissue Blood, route gavage, dose level Middle
Please state the value followed by its unit.

Look over these answered cases.
{"Compound": "COc1ccc2[nH]c([S+]([O-])Cc3ncc(C)c(OC)c3C)nc2c1 (centres undefined)", "Measurement Type": "RBC", "Observed Measurement": "593.4 x10_4/ul"}
{"Compound": "COC1=CC(=O)C[C@@H](C)[C@]12Oc1c(Cl)c(OC)cc(OC)c1C2=O", "Measurement Type": "RBC", "Observed Measurement": "605 x10_4/ul"}
{"Compound": "NC(N)=Nc1nc(CSCCC(N)=NS(N)(=O)=O)cs1", "Measurement Type": "RBC", "Observed Measurement": "601.6 x10_4/ul"}

Kindly review the next compound as well.
Give the reported RBC for this compound. CCOC(=O)CCC(=O)O[C@H]1[C@H](O[C@@H]2[C@@H](C)[C@H](O[C@H]3C[C@@](C)(OC)[C@@H](O)[C@H](C)O3)[C@@H](C)C(=O)O[C@H](CC)[C@@](C)(O)[C@H](O)[C@@H](C)C(=O)[C@H](C)C[C@@]2(C)O)O[C@H](C)C[C@@H]1N(C)C [ERYTHROMYCIN ETHYLSUCCINATE]
645.4 x10_4/ul

---

Known Cl of a selection of compounds
# Species on record: Rattus norvegicus
# Test Method Notes: Open TG-GATES - Regimen: Daily Repeat
# Assay type: toxicity, organism-based, Sprague-Dawley
# Set-up: regimen Daily Repeat, gender Male, age 6 weeks
# Experimental Conditions: in vivo, po, 300 mg/kg, […], tissue Plasma, route gavage, dose level Middle, time 7 day
API: value field is a number in meq/L; no unit string.

{"Compound": "CCOc1ccc(NC(=O)CC(C)O)cc1 (stereo not given) [BUCETIN]", "Measurement Type": "Cl", "Observed Measurement": 105.2}
{"Compound": "CCOC(=O)CCC(=O)O[C@H]1[C@H](O[C@@H]2[C@@H](C)[C@H](O[C@H]3C[C@@](C)(OC)[C@@H](O)[C@H](C)O3)[C@@H](C)C(=O)O[C@H](CC)[C@@](C)(O)[C@H](O)[C@@H](C)C(=O)[C@H](C)C[C@@]2(C)O)O[C@H](C)C[C@@H]1N(C)C [ERYTHROMYCIN ETHYLSUCCINATE]", "Measurement Type": "Cl", "Observed Measurement": 107.6}
{"Compound": "COC1=CC(=O)C[C@@H](C)[C@]12Oc1c(Cl)c(OC)cc(OC)c1C2=O [GRISEOFULVIN]", "Measurement Type": "Cl", "Observed Measurement": 104}

Give the reported Cl for this compound. NC(N)=Nc1nc(CSCCC(N)=NS(N)(=O)=O)cs1 [FAMOTIDINE]
103.4

Give the reported Cl for this compound. COc1ccc2[nH]c([S+]([O-])Cc3ncc(C)c(OC)c3C)nc2c1 (stereo not given) [OMEPRAZOLE]
101.2

---

# Organism: Rattus norvegicus
# Test Method Notes: Open TG-GATES - Regimen: Single
# Assay type: toxicity, organism-based, Sprague-Dawley
# Set-up: regimen Single, gender Male, age 6 weeks
# Experimental Conditions: in vivo, po, 1000 mg/kg, 3 h, tissue Blood, route gavage, dose level High
Measurement Type: MCHC (%)
API: value field is a number in %; no unit string.

{"Molecule": "CC(C)OC(=O)C(C)(C)Oc1ccc(C(=O)c2ccc(Cl)cc2)cc1 [FENOFIBRATE]", "MCHC (%)": 32.5}

Give the reported MCHC for this molecule. CCOC(=O)CCC(=O)O[C@H]1[C@H](O[C@@H]2[C@@H](C)[C@H](O[C@H]3C[C@@](C)(OC)[C@@H](O)[C@H](C)O3)[C@@H](C)C(=O)O[C@H](CC)[C@@](C)(O)[C@H](O)[C@@H](C)C(=O)[C@H](C)C[C@@]2(C)O)O[C@H](C)C[C@@H]1N(C)C [ERYTHROMYCIN ETHYLSUCCINATE]
33.1

Give the reported MCHC for this molecule. `COC1=CC(=O)C[C@@H](C)[C@]12Oc1c(Cl)c(OC)cc(OC)c1C2=O`
34.3

Give the reported MCHC for this molecule. `NC(N)=Nc1nc(CSCCC(N)=NS(N)(=O)=O)cs1`
34.8

Give the reported MCHC for this molecule. COc1ccc2[nH]c([S+]([O-])Cc3ncc(C)c(OC)c3C)nc2c1 (stereo not given)
34.3

---

# Organism: Rattus norvegicus
# Test Method Notes: Open TG-GATES - Regimen: Daily Repeat
# Type: toxicity, organism-based, Sprague-Dawley
# Design: regimen Daily Repeat, gender Male, age 6 weeks
# Experimental Conditions: in vivo, po, 100 mg/kg, […], tissue Kidney, route gavage, dose level Low, time 7 day
Known KIDNEY_TOTAL of a selection of compounds
API: value field is a number in g; no unit string.

Give the reported KIDNEY_TOTAL for this compound. COc1ccc2[nH]c([S+]([O-])Cc3ncc(C)c(OC)c3C)nc2c1 (stereo not given) [OMEPRAZOLE]
2.2

Give the reported KIDNEY_TOTAL for this compound. CCOc1ccc(NC(=O)CC(C)O)cc1 (stereo not given) [BUCETIN]
2.5

Give the reported KIDNEY_TOTAL for this compound. CCOC(=O)CCC(=O)O[C@H]1[C@H](O[C@@H]2[C@@H](C)[C@H](O[C@H]3C[C@@](C)(OC)[C@@H](O)[C@H](C)O3)[C@@H](C)C(=O)O[C@H](CC)[C@@](C)(O)[C@H](O)[C@@H](C)C(=O)[C@H](C)C[C@@]2(C)O)O[C@H](C)C[C@@H]1N(C)C [ERYTHROMYCIN ETHYLSUCCINATE]
2.2

Give the reported KIDNEY_TOTAL for this compound. COC1=CC(=O)C[C@@H](C)[C@]12Oc1c(Cl)c(OC)cc(OC)c1C2=O [GRISEOFULVIN]
2.3

Give the reported KIDNEY_TOTAL for this compound. NC(N)=Nc1nc(CSCCC(N)=NS(N)(=O)=O)cs1 [FAMOTIDINE]
2.2

---

# Species: Rattus norvegicus
# Test Method Notes: Open TG-GATES - Regimen: Daily Repeat
# Format: toxicity, organism-based, Sprague-Dawley
# Set-up: regimen Daily Repeat, gender Male, age 6 weeks
# Experimental Conditions: in vivo, po, 300 mg/kg, 72 h, tissue Blood, route gavage, dose level Middle, time 3 day
Measurement Type: Hb (g/dL)
API: value field is a number in g/dL; no unit string.

{"Molecule": "CCOC(=O)CCC(=O)O[C@H]1[C@H](O[C@@H]2[C@@H](C)[C@H](O[C@H]3C[C@@](C)(OC)[C@@H](O)[C@H](C)O3)[C@@H](C)C(=O)O[C@H](CC)[C@@](C)(O)[C@H](O)[C@@H](C)C(=O)[C@H](C)C[C@@]2(C)O)O[C@H](C)C[C@@H]1N(C)C [ERYTHROMYCIN ETHYLSUCCINATE]", "Measurement Type": "Hb", "Observed Measurement": 13.5}
{"Molecule": "COc1ccc2[nH]c([S+]([O-])Cc3ncc(C)c(OC)c3C)nc2c1 (stereo not given)", "Measurement Type": "Hb", "Observed Measurement": 13}
{"Molecule": "NC(N)=Nc1nc(CSCCC(N)=NS(N)(=O)=O)cs1", "Measurement Type": "Hb", "Observed Measurement": 13.6}
{"Molecule": "CCOc1ccc(NC(=O)CC(C)O)cc1 (stereo not given)", "Measurement Type": "Hb", "Observed Measurement": 13.1}

Kindly review the next molecule as well.
Give the reported Hb for this molecule. `COC1=CC(=O)C[C@@H](C)[C@]12Oc1c(Cl)c(OC)cc(OC)c1C2=O`
13.6
